// provenance: patent US20250034256A1

# TESTED_SYSTEM: T1, Histidine-tagged human PD-1 protein (hPD-1-His) (human, UniProt Q15116 25-170, limits assumed)
# T1 construct: Soluble analyte in SPR; not shown: histidine tag
# T1 sequence (Q15116 25-170 limits assumed): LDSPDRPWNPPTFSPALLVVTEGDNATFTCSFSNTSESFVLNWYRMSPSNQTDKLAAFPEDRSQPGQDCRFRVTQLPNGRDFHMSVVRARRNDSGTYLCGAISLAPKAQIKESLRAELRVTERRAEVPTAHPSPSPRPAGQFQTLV
# ASSAY_METHOD_TEXT: SPR (Biacore T200), antibody captured on Protein A chip, hPD-1-His analyte, 1:1 fit
kon values by entry
Give just the number in M⁻¹ s⁻¹; leave the unit off.

Input: Consider the binder 3F1-H2K2-IgG4-S228P (antibody, V domains shown, Humanized; human IgG4 constant domains with S228P (EU numbering)) VH: QVQLQQSGAEVKKPGASVKMSCKASGYTFTSYWMHWVKQRPGQGLEWIGYINPSTGYTEYNQKFKDRATLTADKSTSTAYMELSSLRSEDTAVYYCARGVRYYFDYWGQGTLVTVSS VL: DIVMTQSPDSLAVSLGERATMSCKSSQSLLNSRTRKNYLAWYQQKPGQSPKLLIYWASTRESGVPDRFSGSGSGTDFTLTISSVQAEDVAVYYCKQSYNLLTFGQGTKLELK and give its measured kon.
Output: 4810

Input: Consider the binder 3F1-H3K2-IgG4-S228P (antibody, V domains shown, Humanized; human IgG4 constant domains with S228P (EU numbering)) VH: QVQLQQSGAEVAKPGASVKMSCKASGYTFTSYWMHWVKQRPGQGLEWIGYINPSTGYTEYNQKFKDRATLTADTSTSTAYMELSSLRSEDTAVYYCARGVRYYFDYWGQGTLLTVSS VL: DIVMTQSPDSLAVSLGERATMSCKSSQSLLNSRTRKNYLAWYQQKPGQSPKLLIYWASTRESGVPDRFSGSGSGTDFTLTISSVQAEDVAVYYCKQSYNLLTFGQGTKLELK and give its measured kon.
Output: 5060

Input: Consider the binder 3F1-H1K3-IgG4-S228P (antibody, V domains shown, Humanized; human IgG4 constant domains with S228P (EU numbering)) VH: QVQLQQSGAEVKKPGASVKMSCKASGYTFTSYWMHWVRQAPGQGLEWIGYINPSTGYTEYNQKFKDRATLTADTSTSTAYMELSSLRSEDTAVYYCARGVRYYFDYWGQGTLVTVSS VL: DIVMTQSPSSLAVSAGERVTMSCKSSQSLLNSRTRKNYLAWYQQKPGQSPKLLIYWASTRESGVPDRFSGSGSGTDFTLTISSVQAEDVAVYYCKQSYNLLTFGQGTKLELK and give its measured kon.
Output: 4790
